Procedure Text: Cytotoxicity against human THP1 cells by MTT assay
Assay type: cell-based
Assay Setup: THP-1 cells
Reported Metric: CC50 (µM)
Enter your answer as a number in µM; do not include the unit.

Request: Which value of CC50 has been reported for COc1ccc(-c2cc(-c3cc(OC)c(OC)c(OC)c3)nc(-c3ccccn3)n2)cc1 in the records?
Result: 50

Request: // returns reported CC50 for input COc1cc(-c2cc(-c3ccc(Br)cc3)nc(N)n2)cc(OC)c1OC
Result: 100

Request: Query: CC50; subject: COc1cc(C2=NN(C(C)=O)C(c3cc(OC)c(OC)c(OC)c3)C2)cc(OC)c1OC (configuration not stated)
Result: 200

Request: Entry under review: COc1ccc(C2=NN(C(C)=O)C(c3cc(OC)c(OC)c(OC)c3)C2)cc1 (configuration not stated) . Reported CC50?
Result: 200

Request: For the compound shown here, COc1cc(-c2cc(-c3ccc4c(c3)OCO4)nc(-c3ccncc3)n2)cc(OC)c1OC , give the reported CC50.
Result: 400

----------
In this section, each of the compounds is paired with its reported selectivity ratio.
Procedure Text: Selectivity index, ratio of CC50 for human THP1 cells to MIC for Mycobacterium tuberculosis H37Rv
Format: toxicity, cell-based
Assay Setup: THP-1 cells, read-out: Selectivity Index
Answer with the value's number alone.

Examples with answers:
Compound: COc1cc(C2CC(c3ccc(Br)cc3)=NN2C(C)=O)cc(OC)c1OC (centres undefined)
Reported Metric: selectivity ratio
Measured Value: 8
//
Compound: COc1ccc(-c2cc(-c3cc(OC)c(OC)c(OC)c3)nc(N)n2)cc1
Reported Metric: selectivity ratio
Measured Value: 4
//
Compound: COc1ccc(C2=NN(C(C)=O)C(c3cc(OC)c(OC)c(OC)c3)C2)cc1 (centres undefined)
Reported Metric: selectivity ratio
Measured Value: 4

Shifting focus to the compound that follows.
Request: Using the record for COc1cc(C2CC(c3ccc(Cl)cc3)=NN2C(C)=O)cc(OC)c1OC (centres undefined) , report its selectivity ratio.
Result: 8

----------
System: Mycobacterium tuberculosis
Procedure Text: Antitubercular activity against Mycobacterium tuberculosis H37Rv by microplate alamar blue assay
Assay type: functional
Reported Metric: MIC (µM)
Report only the number, with the unit µM understood.

A selection of reference data follows.
Compound: COc1cc(C2CC(c3ccc(Br)cc3)=NN2C(C)=O)cc(OC)c1OC (stereo unspecified)
Assayed System: Mycobacterium tuberculosis
MIC / µM: 12.5
--
Compound: COc1ccc(C2=NN(C(C)=O)C(c3cc(OC)c(OC)c(OC)c3)C2)cc1 (stereo unspecified)
Assayed System: Mycobacterium tuberculosis
MIC / µM: 50
--
Compound: COc1cc(-c2cc(-c3ccc(F)cc3)nc(N)n2)cc(OC)c1OC
Assayed System: Mycobacterium tuberculosis
MIC / µM: 50

Could you now look at the following compound, please?
Request: # lookup: MIC of COc1cc(C2CC(c3ccc4c(c3)OCO4)=NN2C(C)=O)cc(OC)c1OC (stereo unspecified)
Result: 100

----------
Procedure Text: Cytotoxicity against human THP1 cells by MTT assay
Assay type: cell-based
Assay Setup: THP-1 cells
Measured CC50 of individual entries
Give the value in µM but do not write µM after it.

Guide cases for CC50, answers given:
Molecule: COc1cc(-c2cc(-c3ccc4c(c3)OCO4)nc(N)n2)cc(OC)c1OC
CC50 [µM]: 200

Molecule: COc1cc(C2CC(c3ccc(Br)cc3)=NN2C(C)=O)cc(OC)c1OC (configuration not stated)
CC50 [µM]: 100

Molecule: COc1cc(C2CC(c3ccc4c(c3)OCO4)=NN2C(C)=O)cc(OC)c1OC (configuration not stated)
CC50 [µM]: 200

Request: // CC50 lookup, key: COc1ccc(-c2cc(-c3cc(OC)c(OC)c(OC)c3)nc(N)n2)cc1
Result: 100

Request: Request the reported CC50 associated with COc1ccc(-c2cc(-c3cc(OC)c(OC)c(OC)c3)nc(-c3cccnc3)n2)cc1
Result: 200

Request: # query: CC50 of entry COc1ccc(C2CC(c3ccc4c(c3)OCO4)=NN2C(C)=O)cc1 (configuration not stated)
Result: 200

Request: Name the reported CC50 value associated with the molecule COc1cc(C2CC(c3ccc(Cl)cc3)=NN2C(C)=O)cc(OC)c1OC (configuration not stated)
Result: 100

Where these numbers come from: ChEMBL document CHEMBL3286291
